Sourced from ChEMBL document CHEMBL1145864

tested on: Rattus norvegicus; experiment: In vivo anti-inflammatory activity by air pouch model at 1 mg/kg perorally in rat.; assay type: functional; conditions: route oral
Listed molecules paired with reported inhibition in vivo at 1 mg/kg
Assay Endpoint: inhibition in vivo at 1 mg/kg (%)

Compound Structure	Assay Endpoint	Numeric Result
CS(=O)(=O)c1ccc(C2=C(c3ccccc3)C(=O)OC2)cc1	inhibition in vivo at 1 mg/kg	95.3
COc1ccc(-c2c(Cl)ncn2-c2ccc(S(C)(=O)=O)cc2)cc1C	inhibition in vivo at 1 mg/kg	75.6
Cc1ccc(-c2c(Cl)ncn2-c2ccc(S(C)(=O)=O)cc2)cc1	inhibition in vivo at 1 mg/kg	65.5
CS(=O)(=O)c1ccc(-c2cnc(Br)n2-c2ccc(F)cc2)cc1	inhibition in vivo at 1 mg/kg	35.5
Cc1ccc(-c2c(Cl)ncn2-c2ccc(S(N)(=O)=O)cc2)cc1	inhibition in vivo at 1 mg/kg	62.3
COc1ccc(-c2c(Cl)ncn2-c2ccc(S(C)(=O)=O)cc2)cc1F	inhibition in vivo at 1 mg/kg	89.5
COc1cc(-c2c(Cl)ncn2-c2ccc(S(C)(=O)=O)cc2)ccc1F	inhibition in vivo at 1 mg/kg	15.1
Cc1ncn(-c2ccc(S(C)(=O)=O)cc2)c1-c1ccc(F)cc1	inhibition in vivo at 1 mg/kg	45
CS(=O)(=O)c1ccc(-n2cnc(Cl)c2-c2ccncc2)cc1	inhibition in vivo at 1 mg/kg	50.2
Cc1ccc(-c2cc(C(F)(F)F)nn2-c2ccc(S(N)(=O)=O)cc2)cc1	inhibition in vivo at 1 mg/kg	93.4
NS(=O)(=O)c1ccc(-n2cnc(Cl)c2-c2ccccc2)cc1	inhibition in vivo at 1 mg/kg	96.3
COc1ccc(-c2c(Cl)ncn2-c2ccc(S(N)(=O)=O)cc2)cc1F	inhibition in vivo at 1 mg/kg	98.2
CS(=O)(=O)c1ccc(-n2cnc(Cl)c2-c2ccccc2)cc1	inhibition in vivo at 1 mg/kg	83.2
CS(=O)(=O)c1ccc(-n2cnc(Cl)c2-c2ccc(F)cc2)cc1	inhibition in vivo at 1 mg/kg	98.1

----------
Recorded measurements of half-life, one per entry
test: Half life of compound was determined at 1 mg/kg intravenous administration in rat; format: ADME, organism-based; design: dose 1 mg/kg, route intravenous; details: in vivo
Assay Endpoint: half-life (h)

Compound	Numeric Result
NS(=O)(=O)c1ccc(-n2cnc(Cl)c2-c2ccccc2)cc1	2.9
CS(=O)(=O)c1ccc(-n2cnc(Cl)c2-c2ccccc2)cc1	17
COc1ccc(-c2c(Cl)ncn2-c2ccc(S(N)(=O)=O)cc2)cc1F [CIMICOXIB]	2.9
CS(=O)(=O)c1ccc(-n2cnc(Cl)c2-c2ccc3c(c2)OCO3)cc1	3.5
COc1ccc(-c2c(Cl)ncn2-c2ccc(S(C)(=O)=O)cc2)cc1F	2.2
Cc1ccc(-c2c(Cl)ncn2-c2ccc(S(N)(=O)=O)cc2)cc1	5.2
CN(C)c1ccc(-c2c(Cl)ncn2-c2ccc(S(C)(=O)=O)cc2)cc1Cl	1.2
CCOc1ccc(-c2c(Cl)ncn2-c2ccc(S(N)(=O)=O)cc2)cc1	2.2
CS(=O)(=O)c1ccc(-n2cnc(Cl)c2-c2ccc(F)cc2)cc1	21
Cc1ccc(-c2c(Cl)ncn2-c2ccc(S(C)(=O)=O)cc2)cc1	1.7

----------
Below, each entry is listed alongside its reported inhibition in vivo at 3 mg/kg.
tested on: Rattus norvegicus; assay: In vivo analgesic activity of compound was determined by inflammatory hyperalgesia model at 3 mg/kg perorally in rat; assay type: functional; settings: route oral
Assay Endpoint: inhibition in vivo at 3 mg/kg (%)

Compound	Target	Reading Unit	Numeric Result
COc1cc(-c2c(Cl)ncn2-c2ccc(S(N)(=O)=O)cc2)ccc1F	Rattus norvegicus	%	38
CCOc1ccc(-c2c(Cl)ncn2-c2ccc(S(N)(=O)=O)cc2)cc1	Rattus norvegicus	%	82.8
Cc1ccc(-c2cc(C(F)(F)F)nn2-c2ccc(S(N)(=O)=O)cc2)cc1 [CELECOXIB]	Rattus norvegicus	%	86.7
CN(C)c1ccc(-c2c(Cl)ncn2-c2ccc(S(C)(=O)=O)cc2)cc1Cl	Rattus norvegicus	%	63.8
COc1ccc(-c2c(Cl)ncn2-c2ccc(S(C)(=O)=O)cc2)cc1F	Rattus norvegicus	%	80
COc1cc(-c2c(Cl)ncn2-c2ccc(S(C)(=O)=O)cc2)ccc1F	Rattus norvegicus	%	20.4
COc1ccc(-c2c(Cl)ncn2-c2ccc(S(C)(=O)=O)cc2)cc1Cl	Rattus norvegicus	%	66.6
CS(=O)(=O)c1ccc(-n2cnc(Cl)c2-c2ccc3c(c2)OCO3)cc1	Rattus norvegicus	%	69.9
CCN(CC)c1ccc(-c2c(Cl)ncn2-c2ccc(S(C)(=O)=O)cc2)cc1	Rattus norvegicus	%	64.1
CS(=O)(=O)c1ccc(-n2cnc(Cl)c2-c2ccncc2)cc1	Rattus norvegicus	%	69.4
COc1ccc(-c2c(Cl)ncn2-c2ccc(S(N)(=O)=O)cc2)cc1F [CIMICOXIB]	Rattus norvegicus	%	83.4
CS(=O)(=O)c1ccc(C2=C(c3ccccc3)C(=O)OC2)cc1 [ROFECOXIB]	Rattus norvegicus	%	83.4

----------
Molecular target: Prostaglandin G/H synthase 2 (Homo sapiens)
Sequence (whole entry): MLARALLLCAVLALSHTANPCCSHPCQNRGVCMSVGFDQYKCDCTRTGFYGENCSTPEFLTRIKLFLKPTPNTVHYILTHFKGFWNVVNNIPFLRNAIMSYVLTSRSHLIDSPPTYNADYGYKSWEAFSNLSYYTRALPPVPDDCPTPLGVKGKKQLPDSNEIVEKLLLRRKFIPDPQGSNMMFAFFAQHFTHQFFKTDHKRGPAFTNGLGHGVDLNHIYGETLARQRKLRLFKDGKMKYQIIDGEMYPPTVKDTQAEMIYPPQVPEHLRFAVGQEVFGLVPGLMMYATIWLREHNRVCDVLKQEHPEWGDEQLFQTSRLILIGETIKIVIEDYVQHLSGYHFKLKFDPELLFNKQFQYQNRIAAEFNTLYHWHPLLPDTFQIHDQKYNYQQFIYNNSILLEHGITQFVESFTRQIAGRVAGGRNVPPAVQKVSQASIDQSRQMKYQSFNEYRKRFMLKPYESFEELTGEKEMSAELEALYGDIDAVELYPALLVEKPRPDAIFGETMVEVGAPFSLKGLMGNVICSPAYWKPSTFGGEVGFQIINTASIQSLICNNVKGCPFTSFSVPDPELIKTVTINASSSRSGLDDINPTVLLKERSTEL
Conditions: Blood; at 10 µM
Description: Inhibition of Prostaglandin G/H synthase 2 (COX-2) in human whole blood at 10 uM
Listing of entries alongside the reported inhibition.

Compound Structure	inhibition, %
CS(=O)(=O)c1ccc(-n2cncc2-c2ccc(F)cc2)cc1	56.9
CS(=O)(=O)c1ccc(-n2cnc(Br)c2-c2ccc(F)cc2)cc1	100
CS(=O)(=O)c1ccc(-n2cnc(Cc3ccccc3)c2-c2ccc(F)cc2)cc1	60.5
Cc1ccc(-c2c(Cl)ncn2-c2ccc(S(N)(=O)=O)cc2)cc1	100
CCc1ncn(-c2ccc(S(C)(=O)=O)cc2)c1-c1ccc(F)cc1	3.8
CS(=O)(=O)c1ccc(-n2c(-c3ccc(F)cc3)cnc2CO)cc1	27.4
Cc1ncc(-c2ccc(S(C)(=O)=O)cc2)n1-c1ccc(F)cc1	68
COc1c(Cl)cc(-c2c(Cl)ncn2-c2ccc(S(C)(=O)=O)cc2)cc1Cl	99.8
CS(=O)(=O)c1ccc(-c2cnc(C=O)n2-c2ccc(F)cc2)cc1	70.9
COc1cc(-c2c(Cl)ncn2-c2ccc(S(N)(=O)=O)cc2)ccc1F	79.3

----------
biological target: Prostaglandin G/H synthase 2 (Homo sapiens); settings: Blood; at 10 µM

Molecule	Target	inhibition (%)
CS(=O)(=O)c1ccc(-c2cnc(Br)n2-c2ccc(F)cc2)cc1	Prostaglandin G/H synthase 2 (Homo sapiens)	92.8
CS(=O)(=O)c1ccc(-n2cnc(Cl)c2-c2ccc(F)cc2F)cc1	Prostaglandin G/H synthase 2 (Homo sapiens)	100
COc1ccc(-c2c(Cl)ncn2-c2ccc(S(C)(=O)=O)cc2)c(F)c1	Prostaglandin G/H synthase 2 (Homo sapiens)	100
CCOc1ccc(-c2c(Cl)ncn2-c2ccc(S(N)(=O)=O)cc2)cc1F	Prostaglandin G/H synthase 2 (Homo sapiens)	100
CCSc1ccc(-c2c(Cl)ncn2-c2ccc(S(C)(=O)=O)cc2)cc1	Prostaglandin G/H synthase 2 (Homo sapiens)	97.3
CS(=O)(=O)c1ccc(-n2c(Cl)nc(Cl)c2-c2ccc(F)cc2)cc1	Prostaglandin G/H synthase 2 (Homo sapiens)	0
CS(=O)(=O)c1ccc(-c2cnc(Cl)n2-c2ccc(F)cc2)cc1	Prostaglandin G/H synthase 2 (Homo sapiens)	100
CS(=O)(=O)c1ccc(C2=C(c3ccccc3)C(=O)OC2)cc1 [ROFECOXIB]	Prostaglandin G/H synthase 2 (Homo sapiens)	100
NS(=O)(=O)c1ccc(-n2cnc(Cl)c2-c2ccc(F)cc2)cc1	Prostaglandin G/H synthase 2 (Homo sapiens)	61.4
COc1cc(-c2c(Cl)ncn2-c2ccc(S(C)(=O)=O)cc2)ccc1C	Prostaglandin G/H synthase 2 (Homo sapiens)	100
COC(=O)c1ncc(-c2ccc(S(C)(=O)=O)cc2)n1-c1ccc(F)cc1	Prostaglandin G/H synthase 2 (Homo sapiens)	39.1
CC(C)c1ccc(-c2c(Cl)ncn2-c2ccc(S(C)(=O)=O)cc2)cc1	Prostaglandin G/H synthase 2 (Homo sapiens)	100
CS(=O)(=O)c1ccc(-n2cnc(Cl)c2-c2ccc3c(c2)OCO3)cc1	Prostaglandin G/H synthase 2 (Homo sapiens)	100
CSc1ccc(-c2c(Cl)ncn2-c2ccc(S(C)(=O)=O)cc2)cc1	Prostaglandin G/H synthase 2 (Homo sapiens)	88.5
CS(=O)(=O)c1ccc(-c2cnc(CO)n2-c2ccc(F)cc2)cc1	Prostaglandin G/H synthase 2 (Homo sapiens)	8.1
CS(=O)(=O)c1ccc(-n2cnc(Cl)c2-c2cccc(F)c2)cc1	Prostaglandin G/H synthase 2 (Homo sapiens)	100
CS(=O)(=O)c1ccc(-c2c(Cl)nc(Cl)n2-c2ccc(F)cc2)cc1	Prostaglandin G/H synthase 2 (Homo sapiens)	51.6
CN(C)c1ccc(-c2c(Cl)ncn2-c2ccc(S(C)(=O)=O)cc2)cc1Cl	Prostaglandin G/H synthase 2 (Homo sapiens)	98.9
CS(=O)(=O)c1ccc(-c2cnc(CF)n2-c2ccc(F)cc2)cc1	Prostaglandin G/H synthase 2 (Homo sapiens)	16.8
CS(=O)(=O)c1ccc(-n2cnc(Cl)c2-c2cc(F)cc(F)c2)cc1	Prostaglandin G/H synthase 2 (Homo sapiens)	61.6
Cc1cc(-c2c(Cl)ncn2-c2ccc(S(C)(=O)=O)cc2)ccc1Cl	Prostaglandin G/H synthase 2 (Homo sapiens)	100
